Reference source for all entries: PubChem BioAssay AID2060487

Test system: 997537-175-T-J1-PDC complex spheroid viability
Assay: Anticancer human tumor 997537-175-T-J1-PDC patient-derived colon adenocarcinoma cell line growth inhibition [GQUAD]
Settings: second compound 0.1 µM; first compound 0.1 µM; stronger effect = lower value
outcome-measure: viability, T/C (%)

compound="O=C(c1cc(Cc2n[nH]c(=O)c3ccccc23)ccc1F)N1CCN(C(=O)C2CC2)CC1 + CN(C)c1ccc(Nc2c3ccc(NC(=O)CCN4CCCC4)cc3nc3cc(NC(=O)CCN4CCCC4)ccc23)cc1" target_or_system="997537-175-T-J1-PDC complex spheroid viability" reported_value=99.2
compound="COc1ncnc(C2CC2)c1-c1ncc2cnn(Cc3ccc(-c4nc(C(F)(F)F)cn4C(C)C)cc3)c2n1 + CN(C)c1ccc(Nc2c3ccc(NC(=O)CCN4CCCC4)cc3nc3cc(NC(=O)CCN4CCCC4)ccc23)cc1" target_or_system="997537-175-T-J1-PDC complex spheroid viability" reported_value=80.4
compound="CC(C)n1c(=O)n(C)c2cnc3cc(F)c(-c4ccc(OCCCN5CCCCC5)nc4)cc3c21 + Cc1[nH]c2ccc(F)cc2c1-c1nc2c3cccnc3c3ncccc3c2[nH]1" target_or_system="997537-175-T-J1-PDC complex spheroid viability" reported_value=97.6
compound="O=C(NO)c1cnc(N2CCN(S(=O)(=O)c3ccc4ccccc4c3)CC2)nc1 + CN(C)c1ccc(Nc2c3ccc(NC(=O)CCN4CCCC4)cc3nc3cc(NC(=O)CCN4CCCC4)ccc23)cc1" target_or_system="997537-175-T-J1-PDC complex spheroid viability" reported_value=90.9
compound="COc1ncnc(C2CC2)c1-c1ncc2cnn(Cc3ccc(-c4nc(C(F)(F)F)cn4C(C)C)cc3)c2n1 + Cc1[nH]c2ccc(F)cc2c1-c1nc2c3cccnc3c3ncccc3c2[nH]1" target_or_system="997537-175-T-J1-PDC complex spheroid viability" reported_value=107

====

System: 997537-175-T-J1-PDC complex spheroid viability
Test: Anticancer human tumor 997537-175-T-J1-PDC cell line growth inhibition [GQUAD];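 note: spheroids exposed to the agents for 7 days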
Conditions: curve of first compound; second compound 0.0316 µM
Excerpt: DNA G-quadruplex Stabilizer Agents in Combinations in Complex Spheroids A high-throughput screen of multi-cell type tumor spheroids was designed to identify active combinations of DNA G-quadruplex stabilizer agents and targeted small molecules. […] Compounds. […] If the clinical Cmax for an agent had not been determined, the highest concentration tested was 10 microM. […]
pIC50: −log10 of the molar value.
outcome-measure: pIC50

molecule="CC[C@@]1(O)C(=O)OCc2c1cc1n(c2=O)Cc2cc3c(CN(C)C)c(O)ccc3nc2-1 + CN(C)c1ccc(Nc2c3ccc(NC(=O)CCN4CCCC4)cc3nc3cc(NC(=O)CCN4CCCC4)ccc23)cc1" outcome_measure=pIC50 bound_operator=< reported_value=6.50
molecule="C=CCn1c(=O)c2cnc(Nc3ccc(N4CCN(C)CC4)cc3)nc2n1-c1cccc(C(C)(C)O)n1 + Cc1[nH]c2ccc(F)cc2c1-c1nc2c3cccnc3c3ncccc3c2[nH]1" outcome_measure=pIC50 bound_operator== reported_value=5.18
molecule="C=CC(=O)N1CCN(c2nc(=O)n(-c3c(C)ccnc3C(C)C)c3nc(-c4c(O)cccc4F)c(F)cc23)C(C)C1 (configuration not stated) + Cc1[nH]c2ccc(F)cc2c1-c1nc2c3cccnc3c3ncccc3c2[nH]1" outcome_measure=pIC50 bound_operator=< reported_value=5.00
molecule="C#Cc1c(F)ccc2cc(O)cc(-c3ncc4c(N5CC6CCC(C5)N6)nc(OCC56CCCN5CC(F)C6)nc4c3F)c12 (configuration not stated) + Cc1cnc(CNC(=O)c2c(=O)c3ccc(N4CCCN(C)CC4)nc3n3c2sc2ccccc23)cn1" outcome_measure=pIC50 bound_operator=< reported_value=5.00
molecule="CC1COCCN1c1cc(C2(S(C)(=N)=O)CC2)nc(-c2ccnc3[nH]ccc23)n1 (configuration not stated) + Cc1cnc(CNC(=O)c2c(=O)c3ccc(N4CCCN(C)CC4)nc3n3c2sc2ccccc23)cn1" outcome_measure=pIC50 bound_operator== reported_value=5.44
molecule="CC(C)n1c(=O)n(C)c2cnc3cc(F)c(-c4ccc(OCCCN5CCCCC5)nc4)cc3c21 + Cc1cnc(CNC(=O)c2c(=O)c3ccc(N4CCCN(C)CC4)nc3n3c2sc2ccccc23)cn1" outcome_measure=pIC50 bound_operator=< reported_value=5.00
molecule="COc1ccc([C@@H](O)c2cc(-c3ncnc4cc(N5CCOCC5)ccc34)c(F)cc2Cl)nn1 + Cc1[nH]c2ccc(F)cc2c1-c1nc2c3cccnc3c3ncccc3c2[nH]1" outcome_measure=pIC50 bound_operator=< reported_value=5.00
molecule="O=C(c1cc(Cc2n[nH]c(=O)c3ccccc23)ccc1F)N1CCN(C(=O)C2CC2)CC1 + Cc1[nH]c2ccc(F)cc2c1-c1nc2c3cccnc3c3ncccc3c2[nH]1" outcome_measure=pIC50 bound_operator=< reported_value=5.00
molecule="Nc1ccn(C2OC(CO)C(O)C2(F)F)c(=O)n1 (configuration not stated) + Cc1[nH]c2ccc(F)cc2c1-c1nc2c3cccnc3c3ncccc3c2[nH]1" outcome_measure=pIC50 bound_operator=< reported_value=5.00
molecule="CC1COCCN1c1cc(C2(S(C)(=N)=O)CC2)nc(-c2ccnc3[nH]ccc23)n1 (configuration not stated) + CN(C)c1ccc(Nc2c3ccc(NC(=O)CCN4CCCC4)cc3nc3cc(NC(=O)CCN4CCCC4)ccc23)cc1" outcome_measure=pIC50 bound_operator== reported_value=5.07
molecule="CCc1c2c(nc3ccc(O)cc13)-c1cc3c(c(=O)n1C2)COC(=O)[C@]3(O)CC + Cc1cnc(CNC(=O)c2c(=O)c3ccc(N4CCCN(C)CC4)nc3n3c2sc2ccccc23)cn1" outcome_measure=pIC50 bound_operator== reported_value=8.09
molecule="CC1COCCN1c1cc(-c2ccnn2C)c2ccnc(-c3ccn[nH]3)c2n1 (configuration not stated) + Cc1cnc(CNC(=O)c2c(=O)c3ccc(N4CCCN(C)CC4)nc3n3c2sc2ccccc23)cn1" outcome_measure=pIC50 bound_operator== reported_value=6.83
molecule="CC1COCCN1c1cc(C2(O)CC3CCC(C2)O3)c2cnn(-c3ccn[nH]3)c2n1 (configuration not stated) + Cc1cnc(CNC(=O)c2c(=O)c3ccc(N4CCCN(C)CC4)nc3n3c2sc2ccccc23)cn1" outcome_measure=pIC50 bound_operator== reported_value=7.07
molecule="COc1ncnc(C2CC2)c1-c1ncc2cnn(Cc3ccc(-c4nc(C(F)(F)F)cn4C(C)C)cc3)c2n1 + Cc1cnc(CNC(=O)c2c(=O)c3ccc(N4CCCN(C)CC4)nc3n3c2sc2ccccc23)cn1" outcome_measure=pIC50 bound_operator=< reported_value=5.00
molecule="Nc1ccn(C2OC(CO)C(O)C2(F)F)c(=O)n1 (configuration not stated) + CN(C)c1ccc(Nc2c3ccc(NC(=O)CCN4CCCC4)cc3nc3cc(NC(=O)CCN4CCCC4)ccc23)cc1" outcome_measure=pIC50 bound_operator=< reported_value=5.00
molecule="Cn1ncnc1[C@H]1c2n[nH]c(=O)c3cc(F)cc(c23)N[C@@H]1c1ccc(F)cc1 + Cc1cnc(CNC(=O)c2c(=O)c3ccc(N4CCCN(C)CC4)nc3n3c2sc2ccccc23)cn1" outcome_measure=pIC50 bound_operator=< reported_value=6.50
molecule="CC(C)(O)C1CCC(Nc2ccc3ncc(-c4cccc(C(F)(F)F)c4)n3n2)CC1 (configuration not stated) + Cc1cnc(CNC(=O)c2c(=O)c3ccc(N4CCCN(C)CC4)nc3n3c2sc2ccccc23)cn1" outcome_measure=pIC50 bound_operator== reported_value=5.95
molecule="Cc1[nH]c2ccccc2c1CCNCc1ccc(/C=C/C(=O)NO)cc1 + Cc1[nH]c2ccc(F)cc2c1-c1nc2c3cccnc3c3ncccc3c2[nH]1" outcome_measure=pIC50 bound_operator=< reported_value=6.50
molecule="C=CCn1c(=O)c2cnc(Nc3ccc(N4CCN(C)CC4)cc3)nc2n1-c1cccc(C(C)(C)O)n1 + CN(C)c1ccc(Nc2c3ccc(NC(=O)CCN4CCCC4)cc3nc3cc(NC(=O)CCN4CCCC4)ccc23)cc1" outcome_measure=pIC50 bound_operator== reported_value=5.68
molecule="CC1COCCN1c1cc(-c2ccnn2C)c2ccnc(-c3ccn[nH]3)c2n1 (configuration not stated) + CN(C)c1ccc(Nc2c3ccc(NC(=O)CCN4CCCC4)cc3nc3cc(NC(=O)CCN4CCCC4)ccc23)cc1" outcome_measure=pIC50 bound_operator== reported_value=6.10
molecule="CC(C)n1c(=O)n(C)c2cnc3cc(F)c(-c4ccc(OCCCN5CCCCC5)nc4)cc3c21 + Cc1[nH]c2ccc(F)cc2c1-c1nc2c3cccnc3c3ncccc3c2[nH]1" outcome_measure=pIC50 bound_operator=< reported_value=5.00
molecule="O=c1[nH]cc(F)c(=O)[nH]1 + CN(C)c1ccc(Nc2c3ccc(NC(=O)CCN4CCCC4)cc3nc3cc(NC(=O)CCN4CCCC4)ccc23)cc1" outcome_measure=pIC50 bound_operator=< reported_value=5.00
